system: Escherichia coli; assay: Antibacterial activity against Escherichia coli assessed as bacterial growth inhibition; type: functional
MEASURED_QUANTITY: MIC (µg/mL)

COMPOUND | SIGN | DATA_VALUE
CC(=O)c1cc2cc(Cl)ccc2n(/N=C/c2ccc(C)cc2)c1=O | = | 1.6
CCn1cc(C(=O)O)c(=O)c2cc(F)c(N3CCNCC3)cc21 | = | 0.1
COc1cc(OC)cc(-c2nn(CN3CCN(c4cc5c(cc4F)c(=O)c(C(=O)O)cn5[C@@H]4C[C@@H]4F)CC3)c(=S)n2Cc2ccccc2)c1 | ≤ | 0.04
CCn1cc(C(=O)O)c(=O)c2cc(F)c(N3CCC4(CCN(C)C4)C3)cc21 (stereo not given) | = | 0.006
CC1Cn2cc(C(=O)O)c(=O)c3cc(F)c(N4CCN(C=O)CC4)c(c32)S1 (stereo not given) | = | 0.12
O=C(O)c1cn2c3c(c(Cl)c(F)cc3c1=O)SC(c1ccccc1F)C2 (stereo not given) | = | 0.12
CN1CCN(c2c(F)cc3c(=O)c(C(=O)O)cn4c3c2SCC4)CC1 | = | 0.25
CC1Cn2cc(C(=O)O)c(=O)c3cc(F)c(N4CCN(Cc5cccc(F)c5)CC4)c(c32)S1 (stereo not given) | = | 0.12
CC(=O)c1cc2cc(Cl)ccc2n(/N=C/c2ccccc2[N+](=O)[O-])c1=O | = | 1.6
CC1Cn2cc(C(=O)O)c(=O)c3cc(F)c(N4CCCNCC4)c(c32)S1 (stereo not given) | = | 0.12
CC(=O)c1cc2cc(Cl)ccc2n(/N=C/c2ccc(O)cc2)c1=O | = | 1.6
CC1Cn2cc(C(=O)O)c(=O)c3cc(F)c(N4CCN(Cc5ccccc5C(F)(F)F)CC4)c(c32)S1 (stereo not given) | = | 0.12
CC1Cn2cc(C(=O)O)c(=O)c3cc(F)c(N4CCN(Cc5ccc(F)cc5F)CC4)c(c32)S1 (stereo not given) | = | 0.12
CC1Cn2cc(C(=O)O)c(=O)c3cc(F)c(N4CCN(C)CC4)c(c32)S1 (stereo not given) | = | 0.12
O=C(O)c1cn2c3c(c(N4CCNCC4)c(F)cc3c1=O)SC(c1ccc(F)cc1)C2 (stereo not given) | = | 0.12
CC(=O)c1cc2cc([N+](=O)[O-])ccc2n(/N=C/c2cccc([N+](=O)[O-])c2)c1=O | = | 1.6
O=C(O)c1cn2c3c(c(Cl)c(F)cc3c1=O)SC(c1ccc(F)cc1)C2 (stereo not given) | = | 0.12
O=C(O)c1cn(C2CC2)c2cc(N3CCNCC3)c(F)cc2c1=O | = | 0.025
O=C(O)c1cn([C@@H]2C[C@@H]2F)c2cc(N3CCN(Cn4nc(-c5ccncc5)n(-c5ccccc5)c4=S)CC3)c(F)cc2c1=O | ≤ | 0.04
CCNCC1CCN(c2c(F)cc3c(=O)c(C(=O)O)cn4c3c2SC(C)C4)C1 (stereo not given) | = | 0.12
CC1Cn2cc(C(=O)O)c(=O)c3cc(F)c(N4CCN(c5ccccn5)CC4)c(c32)S1 (stereo not given) | = | 0.12
CC1Cn2cc(C(=O)O)c(=O)c3cc(F)c(Cl)c(c32)S1 (stereo not given) | = | 0.12
CC(=O)c1cc2ccccc2n(/N=C/c2ccc(C)cc2)c1=O | = | 1.6
CC1(C)S[C@@H]2[C@H](NC(=O)[C@H](N)c3ccc(O)cc3)C(=O)N2[C@H]1C(=O)O | = | 2
O=C(O)c1cn([C@@H]2C[C@@H]2F)c2cc(N3CCN(Cn4nc(-c5ccc6ccccc6c5)n(Cc5ccccc5)c4=S)CC3)c(F)cc2c1=O | ≤ | 0.04
COc1cc(-c2nn(CN3CCN(c4cc5c(cc4F)c(=O)c(C(=O)O)cn5[C@@H]4C[C@@H]4F)CC3)c(=S)n2-c2ccccc2)cc(OC)c1OC | ≤ | 0.04
C[C@H]1COc2c(N3CCC4(CCN(C)C4)C3)c(F)cc3c(=O)c(C(=O)O)cn1c23 (stereo not given in full) | = | 0.025
CC1Cn2cc(C(=O)O)c(=O)c3cc(F)c(N4CCCC4)c(c32)S1 (stereo not given) | = | 0.12
O=C(O)c1cn2c3c(c(Cl)c(F)cc3c1=O)SC(c1cccc(F)c1)C2 (stereo not given) | = | 0.12
CC(=O)c1cc2ccccc2n(/N=C/c2ccccc2[N+](=O)[O-])c1=O | = | 1.6
COc1cc(/C=N/n2c(=O)c(C(C)=O)cc3cc([N+](=O)[O-])ccc32)cc(OC)c1OC | = | 1.6
O=C(O)c1cn([C@@H]2C[C@@H]2F)c2cc(N3CCN(Cn4nc(-c5ccccc5O)n(-c5ccccc5)c4=S)CC3)c(F)cc2c1=O | ≤ | 0.04
CC1Cn2cc(C(=O)O)c(=O)c3cc(F)c(-n4ccnc4)c(c32)S1 (stereo not given) | = | 0.12
COc1cc(OC)cc(-c2nn(CN3CCN(c4cc5c(cc4F)c(=O)c(C(=O)O)cn5[C@@H]4C[C@@H]4F)CC3)c(=S)n2-c2ccccc2)c1 | ≤ | 0.04
COc1ccc(-c2nn(CN3CCN(c4cc5c(cc4F)c(=O)c(C(=O)O)cn5[C@@H]4C[C@@H]4F)CC3)c(=S)n2-c2ccccc2)cc1OC | ≤ | 0.04

----------
assay: Half life in mouse at 20 mg/kg, po; format: ADME, organism-based; conditions: in vivo
MEASURED_QUANTITY: half-life (h)

COMPOUND | MEASURED_QUANTITY | DATA_VALUE
COc1c(N2CCN(C)CC2)c(F)cc2c(=O)c(C(=O)O)c3n(c12)C(C)S3 (centres undefined) | half-life | 4.9
CN1CCN(c2cc3c(cc2F)c(=O)c(C(=O)O)c2n3C(CF)S2)CC1 (centres undefined) | half-life | 1.5
CC1Sc2c(C(=O)O)c(=O)c3cc(F)c(N4CCN(C)CC4)cc3n21 (centres undefined) | half-life | 2.8
COc1c(N2CCN(C)CC2)c(F)cc2c(=O)c(C(=O)O)c3n(c12)C(CF)S3 (centres undefined) | half-life | 1.2
